These measurements were taken from patent US4473554A.

assayed.system: UniProt O09175
Sequence (O09175 1-650): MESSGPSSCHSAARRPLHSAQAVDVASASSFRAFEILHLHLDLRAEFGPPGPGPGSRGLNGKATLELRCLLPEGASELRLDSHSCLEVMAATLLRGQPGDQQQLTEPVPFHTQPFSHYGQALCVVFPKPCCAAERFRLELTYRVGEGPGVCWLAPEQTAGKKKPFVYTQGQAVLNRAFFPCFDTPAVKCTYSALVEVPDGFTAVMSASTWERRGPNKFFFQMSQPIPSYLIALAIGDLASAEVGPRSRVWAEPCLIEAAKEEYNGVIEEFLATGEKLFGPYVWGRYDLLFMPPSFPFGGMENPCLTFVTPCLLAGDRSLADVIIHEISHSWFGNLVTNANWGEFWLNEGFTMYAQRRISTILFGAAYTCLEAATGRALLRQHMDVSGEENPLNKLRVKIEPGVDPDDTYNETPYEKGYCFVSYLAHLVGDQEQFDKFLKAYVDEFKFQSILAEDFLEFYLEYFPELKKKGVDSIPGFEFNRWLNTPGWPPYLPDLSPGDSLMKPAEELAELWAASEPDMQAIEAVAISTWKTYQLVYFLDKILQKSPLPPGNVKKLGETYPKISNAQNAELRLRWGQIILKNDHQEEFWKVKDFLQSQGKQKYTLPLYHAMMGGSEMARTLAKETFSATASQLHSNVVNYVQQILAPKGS
protocol.notes: aminopeptidase B-inhibiting activity (modified Hopsu method, arginine β-naphthylamide substrate)
Type: biochemical
measurement.parameters: 37° C., pH 7.0, 30 minutes
Here the recorded IC50 is given for each entry.

Below, 2 compounds whose answers are already recorded.
>>> print(df.to_string())
                                   compound      result
0  CC(C)C[C@H](NC(=O)[C@@H](O)[C@H](N)Cc1ccccc1)C(=O)N[C@H](CC(N)=O)C(=O)O [Compound No. 12]   4.7 µg/mL
1  CC(=O)N[C@H](Cc1ccccc1)[C@H](O)C(=O)N[C@H](CO)CC(C)C [Compound No. 3]  48.9 µg/mL

Notebook entry, UniProt O09175 assay: IC50 of CC(C)C[C@H](NC(=O)[C@@H](O)[C@H](N)Cc1ccccc1)C(=O)N[C@H](CC(C)C)C(=O)O [Compound No. 7] = ?
15 µg/mL

Can you check CC(C)C[C@H](NC(=O)[C@H](CC(C)C)NC(=O)[C@@H](O)[C@H](N)Cc1ccccc1)C(=O)O [Compound No. 6] next?
0.20 µg/mL

Can you check CC(C)C[C@H](NC(=O)C(O)[C@H](N)Cc1ccccc1)C(=O)N[C@H](Cc1ccccc1)[C@H](O)C(=O)O (some centres unmarked) [Compound No. 8] next?
53 µg/mL

Can you check CC(C)C[C@H](NC(=O)[C@@H](O)[C@H](N)Cc1ccccc1)C(=O)O [Bestatin] next?
0.03 µg/mL

----------
Here the recorded Degree of swelling is given for each entry.
Test system: D.T.H. response in mice immunized with sheep red blood cell (SRBC)
protocol.notes: Delayed Type Hypersensitivity (D.T.H.) footpad test in mice immunized with SRBC, Example 2
Type: in vivo, mouse
measurement.parameters: oral 0.5 mg/kg at immunization; CDF1 mice; control = 100
State just the number; it will be interpreted in %.

Below, 2 molecules whose answers are already recorded.
                                   molecule  measured_parameter  measured_number
0  CC(C)C[C@@H](CO)NC(=O)[C@H](CC(C)C)NC(=O)C(O)[C@H](N)Cc1ccccc1 (stereo partly drawn)  Degree of swelling              103
1  CC(C)C[C@H](NC(=O)[C@@H](O)[C@H](N)Cc1ccccc1)C(=O)N[C@H](CC(N)=O)C(=O)O  Degree of swelling              133

Notebook entry, D.T.H. response in mice immunized with sheep red blood cell (SRBC) assay: Degree of swelling of CC(C)C[C@H](NC(=O)[C@@H](O)[C@H](N)Cc1ccccc1)C(=O)N[C@@H](CC(N)=O)C(=O)O = ?
128
